Please respond with reported hERG current change (%, negative = inhibition) at 10uM for every item in the list.
# Experimental target: human ether-à-go-go-related gene (hERG) potassium channel (human, UniProt Q12809);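 further: peak tail current of the secondary pulse compared with the same well before compound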
# Sequence (Q12809 whole entry, looked up): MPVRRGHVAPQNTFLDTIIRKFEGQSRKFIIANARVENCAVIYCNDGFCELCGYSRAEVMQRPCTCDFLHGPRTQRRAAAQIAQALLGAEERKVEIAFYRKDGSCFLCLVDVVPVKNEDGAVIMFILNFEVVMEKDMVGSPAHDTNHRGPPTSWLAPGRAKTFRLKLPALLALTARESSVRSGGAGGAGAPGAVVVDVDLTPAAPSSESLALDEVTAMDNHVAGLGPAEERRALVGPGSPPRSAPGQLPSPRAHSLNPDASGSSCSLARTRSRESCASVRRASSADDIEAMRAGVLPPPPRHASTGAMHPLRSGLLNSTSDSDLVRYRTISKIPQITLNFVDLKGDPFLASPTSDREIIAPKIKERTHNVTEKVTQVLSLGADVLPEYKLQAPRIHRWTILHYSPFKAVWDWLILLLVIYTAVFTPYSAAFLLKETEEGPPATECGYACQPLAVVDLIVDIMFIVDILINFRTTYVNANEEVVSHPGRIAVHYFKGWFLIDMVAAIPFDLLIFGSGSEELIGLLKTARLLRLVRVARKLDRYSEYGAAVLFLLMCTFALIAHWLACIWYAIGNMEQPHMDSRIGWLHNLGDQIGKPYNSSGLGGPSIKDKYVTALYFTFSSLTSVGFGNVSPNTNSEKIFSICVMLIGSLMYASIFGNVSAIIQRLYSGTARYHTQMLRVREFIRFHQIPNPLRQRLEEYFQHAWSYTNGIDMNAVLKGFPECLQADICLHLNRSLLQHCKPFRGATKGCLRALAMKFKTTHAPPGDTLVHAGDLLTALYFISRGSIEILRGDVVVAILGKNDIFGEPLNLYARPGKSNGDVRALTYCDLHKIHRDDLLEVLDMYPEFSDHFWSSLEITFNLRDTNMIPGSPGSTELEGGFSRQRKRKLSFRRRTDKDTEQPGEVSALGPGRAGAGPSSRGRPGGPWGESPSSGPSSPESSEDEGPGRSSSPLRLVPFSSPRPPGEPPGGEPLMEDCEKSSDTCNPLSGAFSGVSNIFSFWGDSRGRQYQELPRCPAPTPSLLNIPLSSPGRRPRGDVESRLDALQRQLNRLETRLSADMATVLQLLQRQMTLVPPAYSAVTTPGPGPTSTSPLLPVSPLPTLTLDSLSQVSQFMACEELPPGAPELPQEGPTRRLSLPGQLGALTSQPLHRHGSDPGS
# Experimental protocol: primary screen, population patch clamp on CHO cells stably expressing hERG; higher = less effect of the substance
Hit rate of the full screen: of about 310,000 compounds, about 14,000 (4.5%) showed an effect of 50% or more. Effects have a minus sign here. Many of the other results were omitted from the sample, so strong results are more common in it than they were.
Numeric answer only, unit % assumed.

QUERY: # lookup: hERG current change (%, negative = inhibition) at 10uM of Br.CCCN(CCC)C1CCc2cccc(O)c2C1 (stereo not shown)
RESULT: -10.6

QUERY: Fill in the blank: the reported hERG current change (%, negative = inhibition) at 10uM of Br.CCCN(CCC)C1CCc2ccc(O)cc2C1 (stereo not shown) is ____.
RESULT: -70

QUERY: # hERG current change (%, negative = inhibition) at 10uM lookup, item `CN(/N=C/c1c[nH]c2ccccc12)c1cnn(-c2ccc(F)c(Cl)c2)c(=O)c1Cl`
RESULT: -5.66

QUERY: Consider the compound `Cc1ccccc1/C=C1\SC(=S)N(/N=C/c2cc([N+](=O)[O-])ccc2O)C1=O` and give its measured hERG current change (%, negative = inhibition) at 10uM.
RESULT: 8.13

QUERY: Which hERG current change (%, negative = inhibition) at 10uM is reported for this compound? `CC(C)C[C@H](NC(=O)C1(c2ccccc2)CCN(C(=O)OC(C)(C)C)CC1)C(=O)N1CCC[C@H]1C(=O)O`
RESULT: 9.37

QUERY: What value of hERG current change (%, negative = inhibition) at 10uM has been recorded for this entry: `Cc1ccc(/C=N/Nc2ccc3ccccc3n2)o1`
RESULT: -47.4

QUERY: What value of hERG current change (%, negative = inhibition) at 10uM has been recorded for this entry: `CCN1CCN(c2ccc(S(=O)(=O)N3CCCCC3)cc2NC(=O)/C=C/c2ccc(OC)c(OC)c2)CC1`
RESULT: -31.4

QUERY: Suppose we examine the compound `CCOC(=O)c1cn2nc(Oc3ccccc3)ccc2n1` ; what hERG current change (%, negative = inhibition) at 10uM value has been reported?
RESULT: -12.8

QUERY: Can you look up the measured hERG current change (%, negative = inhibition) at 10uM of `CCOC(=O)c1sc(NC(=O)CN2CCN(c3ccc(OC)cc3)CC2)nc1C` for me?
RESULT: -20.6

QUERY: Fill blank: measured hERG current change (%, negative = inhibition) at 10uM of the compound `Cc1n[nH]c(C)c1S(=O)(=O)N1CCC(C(=O)N2CCn3c2nc2ccccc23)CC1` is ____.
RESULT: -3.79

QUERY: Recorded hERG current change (%, negative = inhibition) at 10uM of `C[C@@H]1C(=O)O[C@H]2[C@H](O)[C@@]34[C@H]5C[C@@H](C(C)(C)C)[C@]36[C@@H](OC(=O)[C@@H]6O)O[C@@]4(C(=O)O5)[C@@]12O` , please.
RESULT: 21.2

QUERY: Which hERG current change (%, negative = inhibition) at 10uM reading was recorded for the compound `CCN1CCN(c2ccc(S(=O)(=O)N3CCCCC3)cc2NC(=O)c2ccc(F)cc2)CC1` ?
RESULT: -56.5

QUERY: Need hERG current change (%, negative = inhibition) at 10uM of CCN1CCCC1CNC(=O)Cn1ncc2c(=O)oc3ccc(C)cc3c21 (stereo not shown) , thanks.
RESULT: -2.33

QUERY: I would be grateful if you could share the reported hERG current change (%, negative = inhibition) at 10uM for `COc1ccc(C(=O)N(C)C2CCCCC2)cc1S(=O)(=O)N1CCOCC1` .
RESULT: -3.28

QUERY: Fill in the blank: the reported hERG current change (%, negative = inhibition) at 10uM of `CCN1CCN(c2ccc(S(=O)(=O)N3CCCCC3)cc2NC(=O)/C=C/c2cccc(OC)c2OC)CC1` is ____.
RESULT: -18.9

QUERY: Fill blank: measured hERG current change (%, negative = inhibition) at 10uM of the compound `CCN1CCN(c2ccc(S(=O)(=O)N3CCCCC3)cc2NC(=O)c2cccc(F)c2)CC1` is ____.
RESULT: -34.6

QUERY: Given `Br.CCCN(CCC)[C@@H]1CCc2cccc(O)c2C1` , state its recorded hERG current change (%, negative = inhibition) at 10uM.
RESULT: -34.4

QUERY: # get_value(readout='hERG current change (%, negative = inhibition) at 10uM', item= COc1ccc(CN=C2NC(=O)CC(C(=O)Nc3cc(C)cc(C)c3)S2)cc1 (stereo not shown) )
RESULT: -18.4

QUERY: # hERG current change (%, negative = inhibition) at 10uM lookup, item `Cc1cc(-c2csc(N)n2)c(C)n1CCc1ccccc1.Cl`
RESULT: -12.4
